Ref: ChEMBL document CHEMBL2176953

measurement-description: Plasma protein binding in CD1 mouse after 5 hrs
outcome-measure: fraction unbound at 5 h

Example results:
INSERT INTO results (smi, observed) VALUES
  ('Cc1cn([C@@H]2C[C@H](O)[C@@H](CNC(=O)Nc3ccc(-c4ccccc4)cc3)O2)c(=O)[nH]c1=O', 0.08),
  ('Cc1cn([C@@H]2C[C@H](O)[C@@H](CNC(=O)Nc3ccc(OCc4ccccc4)cc3)O2)c(=O)[nH]c1=O', 0.188),
  ('Cc1cn([C@@H]2C[C@H](O)[C@@H](CNC(=O)Nc3ccc(Oc4ccccc4)cc3)O2)c(=O)[nH]c1=O', 0.095),
  ('Cc1cn([C@@H]2C[C@H](O)[C@@H](CNC(=O)Nc3ccc(N4CCCCC4)cc3)O2)c(=O)[nH]c1=O', 0.477);

Entry under review: `Cc1cn([C@@H]2C[C@H](O)[C@@H](CNC(=O)Nc3ccc(OCc4ccccc4Cl)cc3)O2)c(=O)[nH]c1=O` . Reported fraction unbound at 5 h? 0.059

###

Would you mind telling me the reported pKi of each entry?
target-or-test-system: Thymidylate kinase (Plasmodium falciparum (isolate 3D7))
Sequence (Q8I4S1 whole entry): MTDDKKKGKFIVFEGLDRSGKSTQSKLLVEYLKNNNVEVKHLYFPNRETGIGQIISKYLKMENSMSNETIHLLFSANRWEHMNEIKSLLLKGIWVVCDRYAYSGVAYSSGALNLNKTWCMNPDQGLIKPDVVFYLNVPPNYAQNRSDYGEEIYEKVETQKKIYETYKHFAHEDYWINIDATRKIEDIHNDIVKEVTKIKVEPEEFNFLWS
measurement-description: Inhibition of recombinant Plasmodium falciparum TMPK using TMP as substrate by pyruvate kinase and lactate dehydrogenase enzyme coupled assay
One number for each entry, as −log10 of the molar value.

INSERT INTO measurements (smi, observed) VALUES
  ('Cc1cn([C@H]2C[C@H](O)[C@@H](CNC(=O)Nc3ccc(C(C)(C)C)cc3)O2)c(=O)[nH]c1=O', 4.33);

Working through the 3 compounds below one at a time, give pKi for each.
1. Cc1cn([C@H]2C[C@H](O)[C@@H](CNC(=O)Nc3ccc(Cl)c(C(F)(F)F)c3)O2)c(=O)[nH]c1=O
2. Cc1cn([C@@H]2C[C@H](O)[C@@H](CNC(=O)Nc3ccccc3)O2)c(=O)[nH]c1=O
3. Cc1cn([C@H]2C[C@H](O)[C@@H](CNC(=O)Nc3cccc(Cl)c3)O2)c(=O)[nH]c1=O

4.57
3.78
4.55

Working through the 4 compounds below one at a time, give pKi for each.
1. Cc1cn([C@@H]2C[C@H](O)[C@@H](CNC(=O)c3ccc4ccccc4c3)O2)c(=O)[nH]c1=O
2. COc1cccc(NC(=O)NC[C@H]2O[C@@H](n3cc(C)c(=O)[nH]c3=O)C[C@@H]2O)c1
3. Cc1cn([C@H]2C[C@H](O)[C@@H](CNC(=O)Nc3ccccc3)O2)c(=O)[nH]c1=O
4. Cc1cn([C@H]2C[C@H](O)[C@@H](CNC(=O)Nc3cccnc3)O2)c(=O)[nH]c1=O

1. 3.27
2. 4.16
3. 4.22
4. 3.65

Working through the 2 compounds below one at a time, give pKi for each.
1. Cc1cn([C@@H]2C[C@H](O)[C@@H](CNC(=O)Nc3ccc(Cl)c(C(F)(F)F)c3)O2)c(=O)[nH]c1=O
2. COc1ccc(NC(=O)NC[C@H]2O[C@@H](n3cc(C)c(=O)[nH]c3=O)C[C@@H]2O)cc1

1: 4.06; 2: 4.30
